The reported numbers originate from the supplement of paper PMC6555819.

- Test system: LXRb homodimer (NR concentration 270 nM)
- test-details: PBM binding z-score (relative to random genomic background probes); higher = stronger binding; sequences stand for … in GC…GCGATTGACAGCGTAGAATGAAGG
Answer each item with its documented PBM binding z-score.
Output: the number by itself.

Which PBM binding z-score reading was recorded for the sequence GCTACCAGGCCATTTGGGTCACTCAATGACGGGC ?
-0.419

Using the record for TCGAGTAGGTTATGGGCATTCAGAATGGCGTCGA , report its PBM binding z-score.
-1.18

GET /values?readout=PBM binding z-score&item= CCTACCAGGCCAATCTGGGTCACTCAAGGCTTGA
-0.051

Quick check: PBM binding z-score of TCATATTGGTAAAAGGTGAAAGTCGGTGTGGTAA ?
0.291

Entry under review: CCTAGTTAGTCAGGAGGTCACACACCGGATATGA . Reported PBM binding z-score?
1.17

I would be grateful if you could share the reported PBM binding z-score for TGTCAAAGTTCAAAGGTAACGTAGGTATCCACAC .
1.58

Bench note: what PBM binding z-score did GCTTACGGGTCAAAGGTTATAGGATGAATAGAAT show?
0.455

// returns reported PBM binding z-score for input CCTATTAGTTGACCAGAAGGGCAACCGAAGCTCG
0.735

Entry under review: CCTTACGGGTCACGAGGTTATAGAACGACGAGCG . Reported PBM binding z-score?
-0.0451

Can you look up the measured PBM binding z-score of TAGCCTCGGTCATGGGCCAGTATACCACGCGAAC for me?
-0.572

Field request: PBM binding z-score | item: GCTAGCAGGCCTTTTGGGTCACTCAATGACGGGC
-1.11

For the sequence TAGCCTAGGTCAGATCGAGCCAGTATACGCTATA , what PBM binding z-score is on record?
-0.463

For the sequence shown here, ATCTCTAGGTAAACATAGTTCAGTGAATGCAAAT , give the reported PBM binding z-score.
0.728

Need PBM binding z-score, item ATATGTACGTTAGCTGGGGTCATTCAGACTAGGC
1.42

May I ask what PBM binding z-score has been recorded for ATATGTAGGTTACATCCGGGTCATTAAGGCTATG ?
0.566

Tell me the measured PBM binding z-score of TCATATAGGTAAAGGCGAAAGTCGAACGATATGA , please.
-0.044

Please look up its PBM binding z-score: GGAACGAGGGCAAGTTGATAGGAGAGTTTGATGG
-0.332

Quick check: PBM binding z-score of AAAATGAGGTTATACGTAGATCAGGGAAGAAAGT ?
0.19

May I ask what PBM binding z-score has been recorded for CGAACTAGGTCAAGGACAGTGAGTCTCCGCACGC ?
-0.739

Quick check: PBM binding z-score of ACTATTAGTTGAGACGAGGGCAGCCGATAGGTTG ?
0.184

Looking for the measured PBM binding z-score of TAGCCTAGGTGATGGGCCAGTATACCACGCGAAC , can you help?
-0.955

What does the data say about its PBM binding z-score? Entry: TCTCGGAGGAGACGAAGGTCAGAGCTTTCCAGAG
-1.39

State the recorded PBM binding z-score for this entry: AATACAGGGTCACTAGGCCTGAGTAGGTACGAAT
0.544

Please give the measured PBM binding z-score for this sequence: TCATATAGATAAATGCTAGGTGAAAGTCCGATCT
-0.152

I have this sequence here, TCTAGTTGGTCACGGAGGTCAAACACGACGGGTA , and I need its recorded PBM binding z-score.
1.38

Please report the recorded PBM binding z-score for GGAACGAGGGCATTCGAGTTGAAAGCATGGCGAT .
-1.04

Recorded PBM binding z-score for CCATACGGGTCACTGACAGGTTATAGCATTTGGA , please?
0.0673

PBM binding z-score for CCTATTAGTTGACCATAAGGGCAAACGAAGCTCG ?
0.599

Quick one: PBM binding z-score of GCTTACGGGGCAAAGGTTATAGCATGAATAGAAT ?
0.208

Using the record for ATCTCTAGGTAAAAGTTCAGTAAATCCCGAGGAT , report its PBM binding z-score.
1.31

Could you tell me which PBM binding z-score is on file for ATATGTCGGTTAAGGGTCATTCAGGTTGGTTCGC ?
1.48

I'd like to know its PBM binding z-score. The sequence in question is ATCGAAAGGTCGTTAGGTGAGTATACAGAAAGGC
1.11

Any idea what its PBM binding z-score is? The sequence is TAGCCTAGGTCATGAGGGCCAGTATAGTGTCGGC
-0.262

// query PBM binding z-score value for entry TCTAGCAGGCCAGAGGATCACTCAAGAGGTACGG
-1.43

So what does the record say about PBM binding z-score for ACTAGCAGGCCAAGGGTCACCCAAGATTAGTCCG ?
-0.624

# get_value(readout='PBM binding z-score', item= GCGAATGGGGCATCAGCAGGTTACCATAACTTAA )
-0.446

Request the reported PBM binding z-score associated with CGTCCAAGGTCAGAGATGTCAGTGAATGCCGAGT
-0.161

Suppose we examine the sequence ATATGTAGGTTACATCAGGGTCATTCAGGCTATG ; what PBM binding z-score value has been reported?
0.66

Return reported PBM binding z-score; argument: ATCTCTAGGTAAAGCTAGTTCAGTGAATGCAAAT
0.196

If you can, please state the reported PBM binding z-score value of TCTTGTATATCAGCAGGTTAAGAAAGCTGGCCAA .
0.727

Query (sequence): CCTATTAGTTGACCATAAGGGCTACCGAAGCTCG ; field requested: PBM binding z-score
0.649

# get_value(readout='PBM binding z-score', item= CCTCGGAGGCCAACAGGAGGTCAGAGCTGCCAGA )
-0.663

Name the reported PBM binding z-score value associated with the sequence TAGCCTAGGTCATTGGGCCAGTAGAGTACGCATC
-0.0447

Consider the sequence shown here: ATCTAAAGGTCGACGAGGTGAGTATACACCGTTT What is its recorded PBM binding z-score?
0.727

# input sequence: CAAACTAGGTCACCGGAAGGTCAAAGTGCGCATG ; wanted: its PBM binding z-score
1.52

Dear colleague, I am looking for the recorded PBM binding z-score of the following sequence: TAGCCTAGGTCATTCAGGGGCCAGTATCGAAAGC
1.1

Recorded PBM binding z-score of CGTCCAAGGTCAAAGGTCAGTGTAGAGATGACGG , please.
1.91

Recorded PBM binding z-score of TTACCAAGGTGAAAGGTCGATGATGCACGCCTTG , please.
-0.613

Given TCTATTAGTTGCAGGGCAACCGACGAGTCCGTTT , state its recorded PBM binding z-score.
0.559

Item TCTAGTTGGTCACGGAGGTCGCACACGACGGGTA has what recorded PBM binding z-score?
0.0566

May I ask what PBM binding z-score has been recorded for CCTACTGGGCCAAGGTCATTGAACAGTCAAAGCA ?
-0.34

---

- Test system: PPARg:RXRa 90nM:30nM, anti-RXR (NR concentration 90 nM, RXRa partner concentration 30 nM)
- test-details: PBM binding z-score (relative to random genomic background probes); higher = stronger binding; sequences stand for … in GC…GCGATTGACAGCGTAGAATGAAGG
measurement-type: PBM binding z-score
Lab note: record just the number, no unit beside it.

// returns reported PBM binding z-score for input ACTTACGGGTCAACGAGGTAATAGCACGCGTATA
4.37

Could you share which PBM binding z-score value was measured for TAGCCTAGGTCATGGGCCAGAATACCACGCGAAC ?
2.68

What PBM binding z-score value was documented for this sequence, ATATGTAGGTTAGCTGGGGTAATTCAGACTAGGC ?
2.01

Any idea what PBM binding z-score was measured for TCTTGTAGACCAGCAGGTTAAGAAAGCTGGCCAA ?
1.96

# input sequence: AGAATGAGGTTATACGTAGATCAGGGTAGAAAGT ; wanted: its PBM binding z-score
1.22

Which PBM binding z-score value belongs to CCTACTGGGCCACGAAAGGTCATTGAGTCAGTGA ?
4.22

Query: PBM binding z-score; subject: TTTCCAAGGTGAAGGTCGTTGATCCCTCTGTAGA
3.35

Reported PBM binding z-score, sequence CGTATTAGTTGACCATAAGGGCAACCGAAGCTCG : ____
0.805

Recorded PBM binding z-score for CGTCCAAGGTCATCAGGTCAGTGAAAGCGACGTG , please?
4.84

Name the recorded PBM binding z-score for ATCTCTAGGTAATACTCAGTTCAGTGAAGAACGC .
0.52

Could you share which PBM binding z-score value was measured for TAACCTAGGTCATTGGGCCAGTATAGTACGCATC ?
3.88

Would you kindly share the measured PBM binding z-score for GCTTGTGGATCAAGGTTAAGAAAGACTAAGCTAA ?
1.24
